Please go through the items and note down their melting point.
Structures can show the parent of a compound that is named as a salt.

Some solved entries appear below for comparison.
| Compound | melting point |
| --- | --- |
| CN1CCC(CC(=O)Nc2ccc(Cl)c(Cl)c2)CC1 (as salt: fumaric acid salt) | 180 to 183 °C |
| CCCN(C(=O)CC1CCN(C)CC1)c1ccc(Cl)c(Cl)c1 (as salt: fumaric acid salt) | 144 to 146 °C |
| CCN(C(=O)CC1CCN(C)CC1)c1c(Cl)cccc1Cl (as salt: fumaric acid salt) | 167 to 169 °C |

For the compound CCN(C(=O)CC1CCNCC1)c1ccc(Br)c(Cl)c1 (as salt: fumaric acid salt) , what melting point is on record?
159 to 161 °C
